Kindly state IC50 at 72 h for each of the entries shown.
# Tested on: MV4-11 cells
# procedure-details: MV4-11 Cell Cytotoxicity Assay
# Type: cell-based, human
# test-conditions: human, MV4-11 cells, CCK-8
# Source text: % Inhibition=100−(D−B)/(S−B)*100%. S: The absorbance of the maximum (cells with DMSO) B: The absorbance of the minimum (medium with DMSO)

- compound: "Cc1sc2c(c1C)C(c1ccc(Cl)cc1)=N[C@@H](CC(=O)N1CCN(C(=O)C3CCN(c4ccc(-n5c(O)nnc5-c5cc(C(C)C)c(O)cc5O)cc4)CC3)CC1)c1nnc(C)n1-2 [Compound 29]"
  IC50 at 72 h: "100 to 1000 nM"
- compound: "Cc1sc2c(c1C)C(c1ccc(Cl)cc1)=N[C@@H](CC(=O)N(C)CCOc1ccc(CN(C)Cc3ccc(-n4c(C(=O)NCC(F)(F)F)nnc4-c4cc(C(C)C)c(O)cc4O)cc3)cc1)c1nnc(C)n1-2 [Compound 101, formic acid]"
  IC50 at 72 h: "< 100 nM"
- compound: "Cc1cc(-c2nnc(O)n2-c2ccc(CN3CCN(CC4CCN(C(=O)C[C@@H]5N=C(c6ccc(Cl)cc6)c6c(sc(C)c6C)-n6c(C)nnc65)CC4)CC3)cc2)c(O)cc1O [Compound 9, trifluoroacetic acid]"
  IC50 at 72 h: "< 100 nM"
- compound: "COc1cccc(-c2cc(C(=O)Nc3ccc(-c4ccc(OC5CCN(C(=O)CNC(=O)C[C@@H]6N=C(c7ccc(Cl)cc7)c7c(sc(C)c7C)-n7c(C)nnc76)CC5)cc4O)cc3)ccc2OC)c1 [Compound 134]"
  IC50 at 72 h: "> 1000 nM"
- compound: "Cc1sc2c(c1C)C(c1ccc(Cl)cc1)=N[C@@H](CC(=O)N1CCC(CN3CCN(Cc4ccc(-n5c(C(=O)NCCN6CCCCC6)nnc5-c5cc(C(C)C)c(O)cc5O)cc4)CC3)CC1)c1nnc(C)n1-2 [Compound 107, trifluoroacetic acid]"
  IC50 at 72 h: "< 100 nM"
- compound: "Cc1sc2c(c1C)C(c1ccc(Cl)cc1)=N[C@@H](CC(=O)NCCOc1cccc(CN(C)Cc3ccc(-n4c(O)nnc4-c4cc(C(C)C)c(O)cc4O)cc3)c1)c1nnc(C)n1-2 [Compound 50, trifluoroacetic acid, trifluoroacetic …]"
  IC50 at 72 h: "< 100 nM"
- compound: "Cc1sc2c(c1C)C(c1ccc(Cl)cc1)=N[C@@H](CC(=O)N1CCC(CN3CCN(Cc4ccc(-n5c(S)nnc5-c5cc(C(C)C)c(O)cc5O)cc4)CC3)CC1)c1nnc(C)n1-2 [Compound 12, trifluoroacetic acid]"
  IC50 at 72 h: "< 100 nM"
- compound: "Cc1sc2c(c1C)C(c1ccc(Cl)cc1)=N[C@@H](CC(=O)NCc1ccc(-n3c(S)nnc3-c3cc(C(C)C)c(O)cc3O)cc1)c1nnc(C)n1-2 [Compound 28]"
  IC50 at 72 h: "100 to 1000 nM"

Attention now shifts to the item below.
# input Given the compound CCc1cc(-c2nnc(C(=O)NCC(F)(F)F)n2-c2ccc(CC3CCN(Cc4ccc(CNC(=O)C[C@@H]5N=C(c6ccc(Cl)cc6)c6c(sc(C)c6C)-n6c(C)nnc65)cc4)CC3)cc2)c(O)cc1O [Compound 91, trifluoroacetic acid] , what is its reported IC50 at 72 h?
# output < 100 nM

Cited source for all entries: patent US20220168427A1
